% ADCC @ 6.67 nM, NCI-N87-CLDN18.2, FcR-TANK values, listed per item
test_system: human Claudin 18.2 (CLDN18.2) (human, UniProt P56856-2 1-261)
assay_protocol: cell-based or functional assay
Report the value in % with no unit label.

413H9F8-VL-S32V (antibody, human IgG1, kappa, V domains shown, chimeric human IgG1, PTM site removed; also called 413H9F8-VL-32V; 413H9F8-VL-532V) VH: DVQLVESGGGSVQPGGSRRLSCAASGFTFSSFGMHWVRQAPEKGLEWVAYISSGSSPIYYVDKLKGRFTVSRDNPKNTLFLQMTSLRSEDTAMYYCARAGYAVRNALDYWGQGTSITVSS VL: DIVMTQSPSSLSVSVGEKVTLSCKSSQSLLNVGNQKNYLAWYQQKTGQPPKLLIYGASTRESGVPDRFIGSGSGTDFTLTISSVQAEDLAVYFCQNDLFYPLTFGAGTKLELKR | 13.9

Task: Which % ADCC @ 6.67 nM, NCI-N87-CLDN18.2, FcR-TANK value belongs to 413H9F8-cp5 (antibody, V domains shown, humanized IgG; constant regions not specified) VH: DVQLVESGGGLVQPGGSLRLSCAASGFTFSSFGMHWVRQAPGKGLEWVAYISSGSSPIYYVDKLKGRFTISRDNAKNSLYLQMNSLRAEDTAVYYCARAGYAVRNALDYWGQGTLVTVSS VL: DIVMTQSPPTLSLSPGERVTLSCKSSQSLLNVGNQKNYLAWYQQKPGQAPRLLIYGASTRESGIPDRFSGSGSGTDFTLTISSLQPEDFAVYYCQNDLFYPLTFGGGTKVEIK ?
Result: 14.1

Task: Can you share its % ADCC @ 6.67 nM, NCI-N87-CLDN18.2, FcR-TANK? I mean this binder: 413H9F8-cp7 (antibody, V domains shown, humanized IgG; constant regions not specified) VH: EVQLVESGGGLVQPGGSLRLSCAASGFTFSSFGMHWVRQAPGKGLEWVSYISSGSSPIYYVDKLKGRFTISRDNAKNSLYLQMNSLRAEDTAVYYCARAGYAVRNALDYWGQGTLVTVSS VL: DIVMTQSPPTLSLSPGERVTLSCKSSQSLLNVGNQKNYLAWYQQKPGQAPKLLIYGASTRESGIPDRFSGSGSGTDFTLTISSLQPEDFAVYYCQNDLFYPLTFGGGTKVEIK
Result: 13.3

Task: Dear colleague, I am looking for the recorded % ADCC @ 6.67 nM, NCI-N87-CLDN18.2, FcR-TANK of the following binder: 364D1A7-H1L5 (antibody, V domains shown, humanized IgG; constant regions not specified) VH: EVQLVESGGGLVQPGGSLRLSCAASGFTFSSFGMHWVRQAPGKGLEWVSYISSGSGSIYYADTVKGRFTISRDNAKNSLYLQMNSLRAEDTAVYYCATSYYYGNALEYWGQGTTVTVSS VL: DVVLTQSPDSLAVSLGERATISCKSSQSLFNVGNQKNYLTWYQQKPGQTPTLLIYWASTRKSGVPDRFTGSGSGTDFTLTISSLQAEDVAVYYCQNVYSYPLTFGAGTKVEIK
Result: 9.1

Task: What measured % ADCC @ 6.67 nM, NCI-N87-CLDN18.2, FcR-TANK goes with 413H9F8-cp2 (antibody, V domains shown, humanized IgG; constant regions not specified) VH: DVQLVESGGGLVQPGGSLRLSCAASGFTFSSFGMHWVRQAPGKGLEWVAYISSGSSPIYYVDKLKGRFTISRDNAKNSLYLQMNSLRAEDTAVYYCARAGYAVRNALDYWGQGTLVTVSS VL: EIVMTQSPPTLSLSPGERVTLSCKSSQSLLNVGNQKNYLAWYQQKPGQAPRLLIYGASTRESGIPARFSGSGSGTDFTLTISSLQPEDFAVYYCQNDLFYPLTFGGGTKVEIK ?
Result: 13.2

Task: What value of measured % ADCC @ 6.67 nM, NCI-N87-CLDN18.2, FcR-TANK is listed for 364D1A7-VL-S32V (antibody, human IgG1, kappa, V domains shown, chimeric human IgG1, PTM site removed; also called 364D1A7-VL-32V) VH: DVQLVESGGGLVQPGGSRKLSCAASGFTFSSFGMHWVRQAPEKGLEWVAYISSGSGSIYYADTVKGRFTLSRDNPKNTLFLQMTSLRSEDTAIYYCATSYYYGNALEYWGQGTSVTVSS VL: DVVLTQSPSSLTVTEGEKVSMSCKSSQSLFNVGNQKNYLTWYQQKPGQTPTLLIYWASTRKSGVPDRFTGSGSGTDFTLTINTVQAEDLAVYYCQNVYSYPLTFGAGTKLDLKR ?
Result: 15.3

Task: For the binder 413H9F8-cp8 (antibody, V domains shown, humanized IgG; constant regions not specified) VH: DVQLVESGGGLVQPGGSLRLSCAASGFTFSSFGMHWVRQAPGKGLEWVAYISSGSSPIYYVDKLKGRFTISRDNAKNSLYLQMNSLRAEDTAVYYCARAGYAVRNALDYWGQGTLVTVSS VL: DIVMTQSPPTLSLSPGERVTLSCKSSQSLLNVGNQKNYLAWYQQKPGQAPKLLIYGASTRESGIPDRFSGSGSGTDFTLTISSLQPEDFAVYYCQNDLFYPLTFGGGTKVEIK , what % ADCC @ 6.67 nM, NCI-N87-CLDN18.2, FcR-TANK is on record?
Result: 13.1

Task: Query (binder): 413H9F8-H4L3 (antibody, V domains shown, humanized IgG; constant regions not specified) VH: EVQLVESGGGLVQPGGSLRLSCAASGFTFSSFGMHWVRQAPGKGLEWVAYISSGSSPIYYVDKLKGRFTVSRDNAKNSLYLQMTSLRAEDTAVYYCARAGYAVRNALDYWGQGTLVTVSS VL: DIVMTQSPDSLAVSLGERATINCKSSQSLLNVGNQKNYLAWYQQKPGQPPKLLIYGASTRESGVPDRFIGSGSGTDFTLTISSLQAEDVAVYFCQNDLFYPLTFGGGTKVEIK ; field requested: % ADCC @ 6.67 nM, NCI-N87-CLDN18.2, FcR-TANK
Result: 15.4

Task: // returns reported % ADCC @ 6.67 nM, NCI-N87-CLDN18.2, FcR-TANK for input 413H9F8-H2L1 (antibody, V domains shown, humanized IgG; constant regions not specified) VH: EVQLVESGGGLVQPGGSLRLSCAASGFTFSSFGMHWVRQAPGKGLEWVAYISSGSSPIYYVDKLKGRFTISRDNAKNSLYLQMNSLRAEDTAVYYCARAGYAVRNALDYWGQGTLVTVSS VL: DIVMTQSPDSLAVSLGERATINCKSSQSLLNVGNQKNYLAWYQQKPGQPPKLLIYGASTRESGVPDRFSGSGSGTDFTLTISSLQAEDVAVYYCQNDLFYPLTFGGGTKVEIK
Result: 14.1

Task: Please report the recorded % ADCC @ 6.67 nM, NCI-N87-CLDN18.2, FcR-TANK for 413H9F8-cp1 (antibody, V domains shown, humanized IgG; constant regions not specified) VH: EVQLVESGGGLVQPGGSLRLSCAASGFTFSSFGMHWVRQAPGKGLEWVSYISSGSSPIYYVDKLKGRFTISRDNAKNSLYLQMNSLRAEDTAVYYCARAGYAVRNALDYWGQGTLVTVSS VL: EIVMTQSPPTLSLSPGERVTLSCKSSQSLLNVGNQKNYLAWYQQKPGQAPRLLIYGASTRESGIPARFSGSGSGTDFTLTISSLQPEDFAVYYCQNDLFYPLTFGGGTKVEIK .
Result: 13.3

All figures here come from patent US20210380680A1.
